# assay target: human orexin 2 receptor (Homo sapiens (Human))
# Sequence (O43614 whole entry): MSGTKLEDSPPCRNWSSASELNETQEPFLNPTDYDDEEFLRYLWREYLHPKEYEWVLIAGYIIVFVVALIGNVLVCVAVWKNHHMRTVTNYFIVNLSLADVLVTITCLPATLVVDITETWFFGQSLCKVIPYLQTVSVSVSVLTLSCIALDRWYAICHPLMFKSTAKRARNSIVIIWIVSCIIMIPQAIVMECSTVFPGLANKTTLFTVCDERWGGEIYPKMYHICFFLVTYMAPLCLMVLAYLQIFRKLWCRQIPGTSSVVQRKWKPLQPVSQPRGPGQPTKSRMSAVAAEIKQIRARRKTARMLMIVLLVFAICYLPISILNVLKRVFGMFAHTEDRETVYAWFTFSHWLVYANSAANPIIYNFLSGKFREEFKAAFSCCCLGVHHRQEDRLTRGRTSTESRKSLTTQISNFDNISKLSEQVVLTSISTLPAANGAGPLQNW
# test name: Human orexin 2 receptor Ca2+ mobilization assay (FLIPR, PFSK cells, orexin B 100 nM)
# Assay type: cell-based
# test context: modified Cheng-Prusoff correction, read-out: OR 2 Kb
# Protocol: Human Orexin 2 Receptor Ca^2+ Mobilization Assay Cells were seeded on to 96-well Packard viewplates at a density of 50,000 cells/well and incubated overnight at 37° C., 5% CO2. […] Ligand-induced Ca^2+ release was measured using a Fluorometric Imaging Plate Reader (FLIPR, Molecular Devices, Sunnyvale, Calif.). Functional responses were measured as peak fluorescence intensity minus basal. […] Data are expressed as mean±S.E.M, the designation of NT means not tested.
measured endpoint: Kb (nM)

Some molecules with recorded Kb:
1) Cc1cnc(C)c(N2CC3CN(C(=O)c4cc(F)ccc4-c4ncccn4)CC3C2)n1 (stereo not shown)
32
2) O=C(c1cc(F)ccc1-c1ncccn1)N1CC2CN(c3nccc(-c4ccccc4)n3)CC2C1 (stereo not shown)
63

a. Cc1cc(C)nc(N2CC3CN(C(=O)c4cccc(F)c4-c4ncccn4)CC3C2)n1 (stereo not shown)
b. COc1ccc(C(=O)N2CC3CN(c4nc(C)cc(C)n4)CC3C2)c(-c2ncccn2)c1 (stereo not shown)
// compare measured Kb between a and b ; output the lower one Respond with the label that goes with your answer.
a
